# System: T1, Human ALPPL2 (leucine zipper) (human)
# T1 construct: Whole entry: fused with a cysteine stabilised leucine zipper and His tag; also called hALPPL2
# T1 chain: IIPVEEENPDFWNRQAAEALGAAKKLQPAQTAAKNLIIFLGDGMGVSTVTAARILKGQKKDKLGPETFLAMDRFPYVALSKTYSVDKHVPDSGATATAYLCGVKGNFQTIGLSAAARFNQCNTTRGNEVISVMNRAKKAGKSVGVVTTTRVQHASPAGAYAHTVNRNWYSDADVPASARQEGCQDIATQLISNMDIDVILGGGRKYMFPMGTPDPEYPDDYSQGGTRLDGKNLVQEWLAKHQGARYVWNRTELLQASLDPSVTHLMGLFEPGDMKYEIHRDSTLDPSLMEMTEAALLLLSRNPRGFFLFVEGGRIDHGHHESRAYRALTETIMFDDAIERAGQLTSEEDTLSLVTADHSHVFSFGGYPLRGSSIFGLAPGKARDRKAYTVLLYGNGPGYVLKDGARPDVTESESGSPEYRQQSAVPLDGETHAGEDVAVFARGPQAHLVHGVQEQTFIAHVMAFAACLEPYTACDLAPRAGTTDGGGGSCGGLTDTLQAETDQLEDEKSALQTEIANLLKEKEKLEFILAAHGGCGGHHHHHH
# Assay summary: BLI, antigen immobilised
Property measured: Kd (nM)
One number for each entry, in nM.

Problem: Given the entry E10 His (VHH, not shown: small tags and cut ends, also called #265) VHH: QVQLVESGGGLVQAGGSLRLSCAVSGRALSDYNIGWFRQAPGKEREFVARKTWDGSSTRYDDSVKGRFTVSIEDAKNTAYLQMSSLKTEDTAVYYCAAGRYSRARGWEYDYWGQGTQVTVSS , report its measured Kd.
Solution: 0.0862

Problem: Given the entry E06 His (VHH, not shown: small tags and cut ends) VHH: QVHLVESGGGLVQAGGSLRLSCAASRRSFSEYAMGWFRQAPGKEREFVAAIGWSGVIEYADSVKGRFTISRDNAKDTVYLQMNSLKPEDTAVYYCAAGLGIRVVSQTPAYWGQGTQVTVSS , report its measured Kd.
Solution: 0.0834

Consider the record given below.
Problem: Given the entry D04 His (VHH, not shown: small tags and cut ends) VHH: QVQLVESGGGLVQPGGSLRLSCAASESTFSINVMGWYRQAPGKQRELVATITSGDITNYADSVKGRFTISRDNAENTVYLRTNSLKPEDTAVYYCNARGEYHSGNEYDYWGQGTQVTVSS , report its measured Kd.
Solution: 2.92
